# System under test: recombinant N-terminal GST-tagged human Rho kinase 1 (ROCK1, amino acids 1-535) (Homo sapiens, UniProt Q13464)
# Construct: ROCK1, amino acids 1-535; purchased Invitrogen Inc. PV-3691
# Sequence (Q13464 1-535): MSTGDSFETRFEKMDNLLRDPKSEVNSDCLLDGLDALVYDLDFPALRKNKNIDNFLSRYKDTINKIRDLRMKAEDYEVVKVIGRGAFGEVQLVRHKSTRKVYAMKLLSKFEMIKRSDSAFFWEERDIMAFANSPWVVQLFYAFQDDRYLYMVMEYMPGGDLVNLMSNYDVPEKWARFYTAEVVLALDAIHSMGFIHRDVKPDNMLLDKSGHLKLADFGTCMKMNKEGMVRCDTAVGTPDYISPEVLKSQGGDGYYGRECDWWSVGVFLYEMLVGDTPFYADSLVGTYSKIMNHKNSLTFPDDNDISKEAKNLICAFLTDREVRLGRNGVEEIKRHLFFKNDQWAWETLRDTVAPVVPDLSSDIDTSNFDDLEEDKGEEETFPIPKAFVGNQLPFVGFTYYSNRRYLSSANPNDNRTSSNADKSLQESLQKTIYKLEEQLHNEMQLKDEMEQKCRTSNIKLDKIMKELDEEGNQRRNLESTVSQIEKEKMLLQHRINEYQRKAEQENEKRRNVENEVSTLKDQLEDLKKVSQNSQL
# Protocol details: In vitro Rho kinase assay (luciferase-based ATP consumption), ROCK1
# Format: biochemical
# Assay conditions: recombinant GST-tagged human ROCK1, luciferase-based ATP consumption; read-out: ROCK1 IC50
# Procedure: In Vitro Rho Kinase Assay Rho kinase biochemical assays described below depend on firefly luciferase-based, indirect measurement of total ATP consumption by the kinase following incubation with substrate and ATP. […] After an additional 10 minute incubation at room temperature (about 22° C.), luminescence activity is measured on a Molecular Devices Analyst multi-mode plate reader or other suitable plate reader. […] Negative control activity is measured with DMSO lacking any test compound. […]
pIC50: −log10 of the molar value.

Molecule: Cc1c(-c2ccnc(N)n2)sc2ccc(CNC(=O)c3cccc(Br)c3)cc12 [Example 262]
pIC50: < 5.30
//
Molecule: Cc1cc(C(=O)NCc2ccc3sc(-c4ccnc(N)n4)c(C)c3c2)cc(Cl)n1 [Example 187]
pIC50: > 5.30
//
Molecule: Cc1c(-c2ccnc(N)n2)sc2ccc(CNC(=O)c3ccc(Oc4cccc(O)c4)cc3)cc12 [Example 306]
pIC50: < 5.30
//
Molecule: Cc1c(-c2ccnc(N)n2)sc2ccc(Nc3ccnc(O)n3)cc12 [Example 75]
pIC50: > 5.30
//
Molecule: COc1ccc(Cl)cc1C(=O)NCc1ccc2sc(-c3ccnc(N)n3)c(C)c2c1 [Example 232]
pIC50: < 5.30
//
Molecule: COc1nccc(Nc2ccc3sc(-c4ccnc(N)n4)c(C)c3c2)n1 [Example 74]
pIC50: > 5.30
//
Molecule: Cc1c(-c2ccnc(N)n2)sc2ccc(CNC(=O)c3ccccc3C(=O)c3ccc(F)cc3)cc12 [Example 317]
pIC50: > 5.30
//
Molecule: Cc1c(-c2ccnc(N)n2)sc2ccc(CNC(=O)C=Cc3ccccc3F)cc12 [Example 173]
pIC50: < 5.30
